Values from PubChem BioAssay (NCI)

Test system: BT-549 breast
ASSAY_EXPLANATION: NCI-60 one-dose screen, 48 h (100 = growth as untreated, 0 = no growth, -100 = all killed)
CONDITION_SET: 10 µM unless noted
Compounds without any hit were thinned out: in the full panel of roughly 83,000, 20% have a hit.
Answer condition not met if growth is under 90%, and condition met if it is 90% or more.

>>> category_label("N=C(N)c1ccc(-c2ccc(-c3ccc(-c4cccs4)s3)s2)cc1F")
"condition met"
>>> category_label("COc1ccc2c(c1)c(-c1noc(C(=O)c3cn(C)c4ncc(Br)cc34)n1)cn2C")
"condition not met"
>>> category_label("CC1=CCc2ccccc21")
"condition met"
>>> category_label("CCCCCCCCCCCCCCNC(=O)Nc1ccc(Cl)c(Cl)c1")
"condition not met"
>>> category_label("CCC(Br)(CC)C(=O)c1ccc(OCC(=O)O)c(Cl)c1Cl")
"condition not met"
>>> category_label("CC(=O)Nc1ccc(C=Nc2ccc3ccccc3c2)cc1")
"condition met"
>>> category_label("CCOc1ccc(S(=O)(=O)Nc2ccc3c(c2)N(S(=O)(=O)CC)CCC3)cc1")
"condition met"
>>> category_label("CC(C)CSc1ncnc2nc[nH]c12")
"condition met"
>>> category_label("Nn1c(Nc2ccc(S(=O)(=O)Nc3ncccn3)cc2)nnc(/C=C/c2c(O)ccc3ccccc23)c1=O")
"condition met"
>>> category_label("Cn1cc(-c2nnc(-c3ccccc3)s2)c2cc(Br)cnc21")
"condition met"

----------
Tested on: MOLT-4 leukemia
ASSAY_EXPLANATION: NCI-60 one-dose screen, 48 h
CONDITION_SET: 10 µM unless noted
Compounds without any hit were thinned out: in the full panel of roughly 83,000, 20% have a hit. The source made the active and inactive calls. The calls were made as follows: active = growth percent below 10; inactive = the rest.
Classes used: active, inactive

>>> category_label("CC[C@@H]1NC(=O)[C@@H]2CCCCN2C(=O)[C@@H]2CCCN2C(=O)[C@@H](NC(=O)[C@H](Cc2cc(F)cc(F)c2)NC(=O)Nc2ccc(C3CC3)cc2F)[C@H](C)OC(=O)[C@@H]2C[C@@H](C)CN2C1=O")
"inactive"
>>> category_label("CCOC(=O)c1cc(C(=O)c2ccc(OC)c(OC)c2)n2ccc(-c3ccccn3)cc12")
"inactive"
>>> category_label("Cc1ccc(S(=O)(=O)n2cc(C(=O)C(=O)N3CCCCC3)c3ccccc32)cc1")
"inactive"
>>> category_label("Nc1nc(SCc2cccc([N+](=O)[O-])c2)c2[nH]cnc2n1")
"inactive"
>>> category_label("CC(=O)O.CC(=O)O.O.[Fe]")
"inactive"
>>> category_label("CCOC(=O)n1cc(C2=C(c3ccc(OC)c(OC)c3)COC2=O)c2ccccc21")
"inactive"
>>> category_label("CC1(C)C(=NO)C(C)(C)C1=NO")
"active"
>>> category_label("Cc1ccc(S(=O)(=O)Nc2ccccc2)cc1N")
"inactive"
>>> category_label("C[C@@H](NC(=O)[C@@H](CC(=O)N1CCC(N2CCCCC2)CC1)N1C(=O)[C@@H](N2C(=O)OC[C@@H]2c2ccccc2)[C@H]1/C=C/c1cccc(Cl)c1)c1ccccc1")
"inactive"
>>> category_label("NC1=NC(=O)NC1(c1ccccc1)c1ccccc1")
"inactive"
>>> category_label("COc1cc2c(cc1OCCCN1CCN(CCCOc3cc4c(cc3OC)C(=O)N3C[C@H](F)C[C@H]3C=N4)CC1)N=C[C@@H]1C[C@@H](F)CN1C2=O")
"active"
>>> category_label("CC(C)(C)c1cc(C(=O)Nc2ccccc2C(=O)NCCN)cc(C(C)(C)C)c1")
"inactive"
>>> category_label("CCOC(=O)/C(C#N)=C(\\C)CCc1ccccc1")
"inactive"
>>> category_label("C[C@H]1[C@H](C)CC[C@]2(C(=O)O)CC[C@]3(C)C(=CC[C@@H]4[C@@]5(C)C/C(=C/c6ccco6)C(=O)C(C)(C)[C@@H]5CC[C@]43C)[C@H]12")
"active"
>>> category_label("CCCCCN(CCCCC)CCCCCCCCN1CCCc2ccccc21")
"inactive"
>>> category_label("COc1ccc(C(=O)c2nccc3cc(OC)c(OC)cc23)cc1OC")
"inactive"
>>> category_label("C[N+](C)(C)c1ncnc2[n-]cnc12")
"inactive"
>>> category_label("CC1(C)[C@@H](NOCCCN)CC[C@]2(C)[C@H]3C(=O)C=C4[C@@H]5C[C@](C)(C(=O)O)CC[C@]5(C)CC[C@@]4(C)[C@]3(C)CC[C@@H]12")
"active"
>>> category_label("Oc1cc(Nc2ccnc3cc(Cl)ccc23)c2ncccc2c1")
"inactive"
>>> category_label("O=C(N/N=C/c1ccc([N+](=O)[O-])cc1)c1ccc(Br)o1")
"inactive"
>>> category_label("CSc1nc(N)c(N=Nc2ccc(S(=O)(=O)Nc3nnc(C)s3)cc2)c(=O)[nH]1")
"inactive"
>>> category_label("CCNC(=O)N1CCc2c(Cl)c3c(c(OC)c2[C@@H]1[C@H]1OCc2c1ccc(OC)c2OC)OCCO3")
"inactive"
>>> category_label("O=C1NC(=O)C(Cc2ccc(OCc3ccc(-c4cc(F)c(F)c(F)c4)cc3)cc2)S1 (centres undefined)")
"inactive"
>>> category_label("CCOC(=O)CC(c1ccccc1)C(C#N)c1ccccc1 (centres undefined)")
"inactive"
>>> category_label("O=C1COCCN1c1ccc(NCc2cn(Cc3ccccc3)c3ccccc23)cc1")
"inactive"
>>> category_label("Cc1cc(C)nc(SCC(=O)Nc2cccc(N=Cc3ccccc3O)c2)n1")
"inactive"
>>> category_label("COc1ccc(NC(=S)NNc2ccc(-c3ccc(OC)c(OC)c3)nn2)cc1")
"inactive"
>>> category_label("Cc1ccc2c(c1)/C(=N\\N=C/c1cn(C(C)C)c3ccccc13)C(=O)N2")
"active"
>>> category_label("C=C(C)[C@@H]1CC[C@]2(C)[C@H](CC[C@@H]3[C@@H]([C@@](C)(O)CCC=C(C)C)CC[C@]32C)[C@@]1(C)CCC(=O)O")
"active"
>>> category_label("O=C(CCN1CCCCC1)c1ccc2ccccc2c1")
"inactive"
>>> category_label("C=C(C)[C@@H]1CC[C@]2(COCCCN)CC[C@]3(C)[C@H](CC[C@@H]4[C@@](C)(CCCNCCCN)[C@H](C(=C)C)CC[C@]43C)[C@@H]12")
"active"
>>> category_label("COc1ccc2[nH]c(C(=O)N3CCN(C(=O)OCc4ccc5c(Br)cc(Br)c(O)c5n4)CC3)cc2c1")
"active"
>>> category_label("CC[C@@](C)(NC(=O)[C@H](C)NC(=O)CCNC(=O)C(C)(C)NC(=O)[C@H](C)NC(=O)[C@@H]1CCCN1C(=O)[C@@](C)(CC)NC(=O)[C@H](Cc1ccccc1)NC(=O)C1CCCN1C(=O)C(C)(C)NC(=O)C1CCCN1C(=O)C(C)(C)NC(C)=O)C(=O)NCCC(=O)N[C@@H](CC(C)C)C(=O)NC(C)(C)C(=O)NCCC(=O)N[C@@H](CC(C)C)C(=O)NC(C)(C)C(=O)NC(C)(C)C(=O)N[C@@H](CC(C)C)C(=O)NCCC(=O)NCO (some centres undefined)")
"active"
>>> category_label("CCN(CC)c1ccc2cc(C(Nc3ccc(Cl)cc3)c3nnnn3C(C)(C)C)c(=O)oc2c1 (centres undefined)")
"inactive"
